The origin of these recorded values is patent US20100311107A1.

Please respond with reported Minimal inhibitory concentrations (MIC90) CM400 for every item in the list.
test system: E. coli screening strain CM400; type: cell-based, Escherichia coli; parameters: unit not given here; details: Table 13, MHB medium

Q: Look at this compound and give its reported Minimal inhibitory concentrations (MIC90) CM400. "CN[C@@H]1[C@H](O)[C@H](NC)[C@H]2O[C@@]3(O)C(=O)C[C@@H](C)O[C@H]3O[C@@H]2[C@H]1O"
A: >64

Q: Form field: reported Minimal inhibitory concentrations (MIC90) CM400 of CN[C@@H]1[C@@H](O[C@H]2O[C@H](CO)[C@@H](N)[C@H](O)[C@H]2O)OC2C[C@@H](N)[C@@H](O[C@H]3[C@H](O)[C@@H](O)[C@H](N)C[C@@H]3N)OC2[C@@H]1O (stereo partly drawn)
A: 64

Q: Look up Minimal inhibitory concentrations (MIC90) CM400 for this compound: "O=C(N[C@H](CO)[C@H](O)c1ccc([N+](=O)[O-])cc1)C(Cl)Cl"
A: >64

Q: Sample "CC[C@H]1OC(=O)[C@H](C)[C@@H](O[C@H]2C[C@@](C)(OC)[C@@H](O)[C@H](C)O2)[C@H](C)[C@@H](O[C@@H]2O[C@H](C)C[C@H](N(C)C)[C@H]2O)[C@](C)(O)C[C@@H](C)C(=O)[C@H](C)[C@@H](O)[C@]1(C)O" — what was its Minimal inhibitory concentrations (MIC90) CM400?
A: 64

Q: Using the record for "CC1(C)S[C@@H]2[C@H](NC(=O)[C@H](N)c3ccccc3)C(=O)N2[C@H]1C(=O)O" , report its Minimal inhibitory concentrations (MIC90) CM400.
A: >64

Q: Recorded Minimal inhibitory concentrations (MIC90) CM400 of "CCn1cc(C(=O)O)c(=O)c2ccc(C)nc21" , please.
A: >64
